tested on: WIL2-NS; assay: Antitumor activity was evaluated against lymphoma cell line Wil2-NS (human splenic B lymphoblastoid cells).; type: functional, cell-based
Decision: IC50 beneath 3 µM gives TRUE; IC50 meeting or exceeding 3 µM gives FALSE.

input_smiles=O=Nc1c2cc(Cl)ccc2n2nnc3ccccc3c12 class_name=TRUE
input_smiles=COc1cccc2c1C(=O)c1c(O)c3c(c(O)c1C2=O)C[C@@](O)(C(=O)CO)C[C@@H]3O[C@H]1C[C@H](N)[C@H](O)[C@H](C)O1 class_name=TRUE
input_smiles=O=Nc1c2ccccc2n2nnc3ccccc3c12 class_name=FALSE
input_smiles=COc1ccc2c(c1)c(N=O)c1c3ccccc3nnn21 class_name=FALSE
input_smiles=O=Nc1c2ccccc2n2nnc3cc(Cl)ccc3c12 class_name=TRUE

A record lists O=Nc1c2ccccc2n2nnc3ccc(Cl)cc3c12 . Is its IC50 below 3 µM?
TRUE

For Cc1ccc2nnn3c4ccccc4c(N=O)c3c2c1 , is the recorded IC50 below the cut-off of 3 µM?
TRUE

is_below(IC50, 3 µM) for O=Nc1c2cc([N+](=O)[O-])ccc2n2nnc3ccccc3c12 ?
FALSE
